The measurements presented in this section are drawn from patent US20250388688A1.

Target: T1, Soluble TSHR (22-260) protein (human, UniProt P16473 22-260)
T1 construct: range 22-260
Experiment: SPR (Biacore T200, 25 C), antibody captured on anti-human Fc, soluble TSHR (22-260) as analyte, 1:1 fit;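 also: antibodies captured at 0.1 ug/mL on a CM5 sensor chip bearing anti-human Fc, with HBS-EP+ running buffer at pH 7.4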
Experimental readout: Kd (nM)
Form entry: value (nM) — number only.

Known results for binders:
# Binder, Kd [nM]
data = [
    ("TSHB-10 (antibody, V domains shown) VH: EVQLVQSGAEVKKPGESLKISCKASGYSLTDNWIGWVRQKPGKGLEWMGIIYPGDSDTRYSPSFKGQVTISADKSISTAYLQWSSLKASDTAIYYCVGLDWNYNPLRYWGQGTLVTVSS VL: QSVLTQPPSVSAAPGQKVTISCSGSSSDIGSNYVSWYQQFPGTAPKLLIYDNNKRPSAIPDRFSGSKSGTSATLGITGLQTGDEADYYCGTWDSRLGIAVFGGGTQLTVL", 2.94),
    ("TSHB-9 (antibody, V domains shown) VH: EVQLVQSGAEVKKPGESLKISCKASGYSLTDNWTGWVRQKPGKGLEWMGIIYPGDSDTRYSPSFQGQVTISADKSISTAYLQWSSLKASDTAIYYCVGLDWNYNPLRYWGQGTLVTVSS VL: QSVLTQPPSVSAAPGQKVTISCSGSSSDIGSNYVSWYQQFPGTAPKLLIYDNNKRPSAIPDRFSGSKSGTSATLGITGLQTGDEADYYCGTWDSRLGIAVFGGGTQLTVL", 6.53),
    ("TSHB-4 (antibody, V domains shown) VH: EVQLVQSGAEVKKPGESLKISCKASGYELTDNWIGWVRQKPGKGLEWMGIIYPGDSDTRYSPSFQGQVTISADKSISTAYLQWSSLKASDTAIYYCVGLDWNYNPLRYWGQGTLVTVSS VL: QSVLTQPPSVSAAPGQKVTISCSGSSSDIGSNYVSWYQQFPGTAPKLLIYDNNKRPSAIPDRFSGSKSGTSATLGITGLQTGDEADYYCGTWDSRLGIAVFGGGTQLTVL", 2.41),
]

# evaluate next
Qu. # return recorded Kd for input TSHB-17 (antibody, V domains shown) VH: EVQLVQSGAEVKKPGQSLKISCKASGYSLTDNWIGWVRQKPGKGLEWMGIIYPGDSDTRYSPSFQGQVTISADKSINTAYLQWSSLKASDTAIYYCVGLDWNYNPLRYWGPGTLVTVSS VL: QSVLTQPPSVSAAPGQKVTISCSGSSSDIGSLYVSWYQQLPGTAPKLLIYDNNKRPSGIPDRFSGSKSGTSATLGITGLQTGDEADYYCGTWDSRLGIAVFGGGTQLTVL
Ans. 8.25
